Can you tell me IC50 for the items I'm about to list?
- assay-explanation: Inhibition of potato 5-LOX using arachidonic acid as substrate assessed as production of hydroperoxides after 5 mins […]
- Design: species or system Solanum tuberosum
Expressed in µM, but write only the number.

Form field: reported IC50 of CC(C)(C)c1cc(/C=C2\SC(=N)NC2=O)cc(C(C)(C)C)c1O [DARBUFELONE]
0.77

Form field: reported IC50 of CC(C)(C)C1=CC(=NNC(=O)c2ccccc2)C=C(C(C)(C)C)C1=O
5.1

Form field: reported IC50 of CC(C)(C)C1=CC(=NNC(=O)c2ccncc2)C=C(C(C)(C)C)C1=O
20
